# target-under-test: T1, 小鼠结合素-4 (mouse Nectin-4) (mouse, UniProt Q8R007 31-508)
# T1 construct: Transiently expressed on 293T cells; also called NP_082169.2
# T1 sequence: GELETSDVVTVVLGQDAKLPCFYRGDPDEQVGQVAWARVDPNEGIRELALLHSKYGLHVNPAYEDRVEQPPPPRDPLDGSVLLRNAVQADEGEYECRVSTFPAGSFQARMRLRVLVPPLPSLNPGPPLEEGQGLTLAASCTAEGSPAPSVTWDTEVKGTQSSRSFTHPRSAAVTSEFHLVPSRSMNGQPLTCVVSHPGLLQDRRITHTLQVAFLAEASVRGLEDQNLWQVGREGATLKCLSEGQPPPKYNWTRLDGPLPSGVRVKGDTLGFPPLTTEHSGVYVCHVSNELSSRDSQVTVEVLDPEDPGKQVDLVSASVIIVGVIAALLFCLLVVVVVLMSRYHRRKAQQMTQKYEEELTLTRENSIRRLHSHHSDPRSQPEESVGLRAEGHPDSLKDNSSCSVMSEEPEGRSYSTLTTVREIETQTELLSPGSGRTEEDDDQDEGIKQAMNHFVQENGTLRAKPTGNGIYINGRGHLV
# protocol-summary: flow cytometry on transiently transfected 293T cells; ++ = EC50 5nM to 25nM
pEC50: −log10 of the molar value.

binder	pEC50
N4_mAb 2 (antibody, V domains shown) VH: QVQLKQSGPNLVQPSQSLSITCTVSGFSLTTYGAHWVRQSPGKGLEWLGVIWRGGSTDYNAAFMSRLSITKDNSKSQVFFKMNSLQADDTAIYYCAKIGYDGYAMDNWGQGTSVTVSS VL: DFQVTQSPASLSASVGETVTITCRTSENIHNYLAWYQQKQGKSPQLLVYNAKTLADGVPSRFSGSGSGTQYSLKINSLQPEDFGTYYCQHFWSSPWTFGGGTKLEIK	7.60 to 8.30

// data source = patent CN116507641A
